The following molecules are shown together with reported chromatographic logP values.
- assay.details: log P determination by HPLC on reversed-phase column (EEC Directive 79/831 Annex V.A8)
- Assay type: physicochemical
- assay.setup: reversed-phase C18 HPLC column, pH 2.3, C18, 43° C., 0.1% aqueous phosphoric acid/acetonitrile gradient
Give a plain numeric answer without units written out.

>  <smiles.text>
C[Si](C)(C)CCc1sccc1NC(=O)c1cccnc1Cl

>  <chromatographic logP>
3.65

$$$$

Could you now look at the following molecule, please?
Enquiry: Dear colleague, please send me the reported chromatographic logP for C[Si](C)(C)CCc1sccc1N when you can.
Return: 1.78

====

- Tested on: Venturia inaequalis
- assay.details: Venturia test (apple)/protective
- Type: in vivo
- assay.setup: protective spray, application rate 100 g/ha, evaluation 10 days after inoculation
Efficacy in % values, listed per item
Field: numeric (%). Do not append units.

>  <compound>
Cn1cc(C(=O)Nc2ccsc2CC[Si](C)(C)C)c(C(F)(F)F)n1 [drawing 85]

>  <measured.on>
Venturia inaequalis

>  <Efficacy in % [%]>
100

$$$$
>  <compound>
Cn1cc(C(=O)Nc2ccsc2CC[Si](C)(C)C)c(I)n1 [drawing 89]

>  <measured.on>
Venturia inaequalis

>  <Efficacy in % [%]>
100

$$$$
>  <compound>
Cc1nc(C(F)F)c(C(=O)Nc2ccsc2CC[Si](C)(C)C)s1 [drawing 84]

>  <measured.on>
Venturia inaequalis

>  <Efficacy in % [%]>
100

$$$$

Enquiry: Complete the entry with Efficacy in % for Cn1cc(C(=O)Nc2ccsc2CC[Si](C)(C)C)c(C(F)(F)F)c1 [drawing 88]
Return: 99

Enquiry: Retrieve Efficacy in % measured for Cn1cc(C(=O)Nc2ccsc2CC[Si](C)(C)C)c(C(F)F)n1 [drawing 86] and print it.
Return: 100

Enquiry: Indicate its recorded Efficacy in %; the compound in question is Cc1nn(C)c(F)c1C(=O)Nc1ccsc1CC[Si](C)(C)C [drawing 87]
Return: 100

Every entry's value here was drawn from patent US7897780B2.
